Values from paper PMC8125951

# system: soybean lipoxygenase (Glycine max, UniProt P08170)
# Sequence (P08170 1-839): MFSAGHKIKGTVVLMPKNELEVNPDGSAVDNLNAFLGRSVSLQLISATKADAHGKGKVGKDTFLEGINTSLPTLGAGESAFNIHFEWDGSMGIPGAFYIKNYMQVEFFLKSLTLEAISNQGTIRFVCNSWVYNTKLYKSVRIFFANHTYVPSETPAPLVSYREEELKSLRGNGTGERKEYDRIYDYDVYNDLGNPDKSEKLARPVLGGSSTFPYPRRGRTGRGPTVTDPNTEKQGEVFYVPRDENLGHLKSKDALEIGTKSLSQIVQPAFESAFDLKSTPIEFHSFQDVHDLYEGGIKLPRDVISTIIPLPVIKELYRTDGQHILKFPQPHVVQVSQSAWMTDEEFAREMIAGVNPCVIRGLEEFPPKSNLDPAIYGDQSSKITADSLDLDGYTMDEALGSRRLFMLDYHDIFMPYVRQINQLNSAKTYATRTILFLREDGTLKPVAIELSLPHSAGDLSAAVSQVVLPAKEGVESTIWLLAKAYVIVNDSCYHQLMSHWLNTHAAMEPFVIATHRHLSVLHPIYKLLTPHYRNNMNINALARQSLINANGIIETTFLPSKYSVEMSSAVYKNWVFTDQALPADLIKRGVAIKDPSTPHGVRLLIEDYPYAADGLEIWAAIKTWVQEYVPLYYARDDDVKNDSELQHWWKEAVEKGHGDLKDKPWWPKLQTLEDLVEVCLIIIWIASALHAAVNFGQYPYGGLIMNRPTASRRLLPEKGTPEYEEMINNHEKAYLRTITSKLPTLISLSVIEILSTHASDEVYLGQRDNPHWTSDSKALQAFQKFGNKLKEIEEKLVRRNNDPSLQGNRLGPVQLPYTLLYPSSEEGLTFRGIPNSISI
# runDescription: Soybean LOX inhibition study in vitro
# Assay type: biochemical
# setupConditions: at 100 μM; read-out: Inhibition of Soybean Lipoxygenase 100 μM (%)
Property: inhibition at 100 µM; scope: individual molecules
// return numeric value only (unit: %, not printed)

[ask] Annotate the molecule COc1cc(OC)c(OC)cc1/C=C1\Oc2ccccc2C1=O [Compound 6b, 2′,4′,5′-trimethoxy-aurone] with its measured inhibition at 100 µM.
[reply] 13

[ask] Annotate the molecule O=C1/C(=C/c2ccc(O)c(O)c2)Oc2cc(O)ccc21 [Compound 7a, 3′,4′,6-Trihydroxy-Aurone] with its measured inhibition at 100 µM.
[reply] 24.5

[ask] Annotate the molecule COCOc1ccc(C(=O)/C=C/c2ccc(OCOC)c(OCOC)c2)c(O)c1 [Compound 3a] with its measured inhibition at 100 µM.
[reply] 40.2

[ask] Annotate the molecule O=C(/C=C/c1ccc(O)c(O)c1)c1ccc(O)cc1O [Compound 4a, 2′,3,4,4′-tetrahydroxy-chalcone] with its measured inhibition at 100 µM.
[reply] 39.3

Now examine the next entry.
[ask] Annotate the molecule COCOc1ccc2c(c1)O/C(=C\c1ccc(OCOC)c(OCOC)c1)C2=O [Compound 6a, 3′,4′,6-tri(methoxymethoxy)-aurone] with its measured inhibition at 100 µM.
[reply] 24.4

====

# runDescription: Interaction with the stable free radical DPPH (reducing activity)
# setupConditions: 100 μM, 60 min
endpointName: Interaction with the Free Radical DPPH (%)
// return numeric value only (unit: %, not printed)

As a guide, the following entries are already answered.
[ask] Annotate the compound C[C@H](Cc1ccc(O)c(O)c1)[C@@H](C)Cc1ccc(O)c(O)c1 [NDGA, Nordihydroguaiaretic acid, reference compound] with its measured Interaction with the Free Radical DPPH (%).
[reply] 93.0

[ask] Annotate the compound O=C1/C(=C/c2ccc(O)c(O)c2)Oc2cc(O)ccc21 [Compound 7a, 3′,4′,6-Trihydroxy-Aurone] with its measured Interaction with the Free Radical DPPH (%).
[reply] 91.2

[ask] Annotate the compound O=C1/C(=C/c2cc(O)c(O)cc2O)Oc2ccccc21 [Compound 7b, 2′,4′,5′-Trihydroxy-Aurone] with its measured Interaction with the Free Radical DPPH (%).
[reply] 100

[ask] Annotate the compound Cc1c(C)c2c(c(C)c1O)CCC(C)(C(=O)O)O2 (stereo not shown) [Trolox, reference compound] with its measured Interaction with the Free Radical DPPH (%).
[reply] 93.6

[ask] Annotate the compound COCOc1ccc(C(=O)/C=C/c2cc(OC)c(OC)cc2OC)c(O)c1 with its measured Interaction with the Free Radical DPPH (%).
[reply] 2.3

Now examine the next entry.
[ask] Annotate the compound COCOc1ccc(C(=O)/C=C/c2ccc(OCOC)c(OCOC)c2)c(O)c1 with its measured Interaction with the Free Radical DPPH (%).
[reply] 21.6

====

# runDescription: Interaction with the stable free radical DPPH (reducing activity)
# setupConditions: 100 μM, 20 min
endpointName: Interaction with the Free Radical DPPH (%)
// return numeric value only (unit: %, not printed)

As a guide, the following entries are already answered.
[ask] Annotate the molecule O=C1/C(=C/c2ccc(O)c(O)c2)Oc2cc(O)ccc21 [Compound 7a, 3′,4′,6-Trihydroxy-Aurone] with its measured Interaction with the Free Radical DPPH (%).
[reply] 89

[ask] Annotate the molecule O=C1/C(=C/c2cc(O)c(O)cc2O)Oc2ccccc21 [Compound 7b, 2′,4′,5′-Trihydroxy-Aurone] with its measured Interaction with the Free Radical DPPH (%).
[reply] 100

Now examine the next entry.
[ask] Annotate the molecule O=C(/C=C/c1ccc(O)c(O)c1)c1cc(Br)ccc1O [Compound 4b, 5′-bromo-2′,3,4-trihydroxy-chalcone] with its measured Interaction with the Free Radical DPPH (%).
[reply] 82.4

====

# system: soybean lipoxygenase (Glycine max, UniProt P08170)
# runDescription: Soybean LOX inhibition study in vitro
# Format: biochemical
# setupConditions: read-out: Inhibition of Soybean Lipoxygenase IC50
Property: pIC50; scope: individual molecules
FYI, pIC50 means -log10 of a concentration in mol per litre.

As a guide, the following entries are already answered.
[ask] Annotate the molecule COCOc1ccc(/C=C/C(=O)c2cc(Br)ccc2O)cc1OCOC with its measured pIC50.
[reply] 4.26

[ask] Annotate the molecule COc1cc(OC)c(OC)cc1/C=C/C(=O)c1ccccc1O [Compound 3b, 2′-hydroxy-2,4,5-trimethoxy-chalcone] with its measured pIC50.
[reply] 4.12

[ask] Annotate the molecule O=C(O)c1ccc(/C=C/C(=O)c2cc(Cl)ccc2O)cc1 [Compound 3k, 4-carboxy-5′-chloro-2′-hydroxy-chalcone] with its measured pIC50.
[reply] 4.17

[ask] Annotate the molecule O=C(/C=C/c1ccc(O)c(O)c1)c1cc(Br)ccc1O [Compound 4b, 5′-bromo-2′,3,4-trihydroxy-chalcone] with its measured pIC50.
[reply] 4.15

[ask] Annotate the molecule COCOc1ccc(/C=C/C(=O)c2cc(Br)cc(Br)c2O)cc1OCOC with its measured pIC50.
[reply] 4.17

[ask] Annotate the molecule COc1cccc(/C=C/C(=O)c2cc(Cl)ccc2O)c1OC with its measured pIC50.
[reply] 4.00

Further cases:
[ask] Annotate the molecule COC(=O)c1ccc(/C=C/C(=O)c2ccccc2O)cc1 [Compound 5, 4-Methoxycarbonyl-2′-Hydroxy-Chalcone] with its measured pIC50.
[reply] 4.00

[ask] Annotate the molecule COc1ccc(/C=C/C(=O)c2cc(Br)cc(Br)c2O)cc1OC with its measured pIC50.
[reply] 4.16

[ask] Annotate the molecule COCOc1ccc(C(=O)/C=C/c2cc(OC)c(OC)cc2OC)c(O)c1 with its measured pIC50.
[reply] 4.35

[ask] Annotate the molecule O=C(O)c1ccc(/C=C/C(=O)c2ccccc2O)cc1 [Compound 3j, 4-carboxy-2′-hydroxy-chalcone] with its measured pIC50.
[reply] 4.00

====

# runDescription: Interaction with the stable free radical DPPH (reducing activity)
# setupConditions: 100 μM, 20 min
endpointName: Interaction with the Free Radical DPPH (%)
// return numeric value only (unit: %, not printed)

[ask] Annotate the molecule Cc1c(C)c2c(c(C)c1O)CCC(C)(C(=O)O)O2 (stereo not shown) [Trolox, reference compound] with its measured Interaction with the Free Radical DPPH (%).
[reply] 93.0

[ask] Annotate the molecule C[C@H](Cc1ccc(O)c(O)c1)[C@@H](C)Cc1ccc(O)c(O)c1 [NDGA, Nordihydroguaiaretic acid, reference compound] with its measured Interaction with the Free Radical DPPH (%).
[reply] 87.0

Further cases:
[ask] Annotate the molecule O=C(/C=C/c1ccc(O)c(O)c1)c1ccc(O)cc1O [Compound 4a, 2′,3,4,4′-tetrahydroxy-chalcone] with its measured Interaction with the Free Radical DPPH (%).
[reply] 95.7

====

# runDescription: Interaction with the stable free radical DPPH (reducing activity)
# setupConditions: 100 μM, 60 min
endpointName: Interaction with the Free Radical DPPH (%)

As a guide, the following entries are already answered.
[ask] Annotate the molecule O=C(/C=C/c1ccc(O)c(O)c1)c1ccc(O)cc1O [Compound 4a, 2′,3,4,4′-tetrahydroxy-chalcone] with its measured Interaction with the Free Radical DPPH (%).
[reply] 95.3%

[ask] Annotate the molecule COCOc1ccc(/C=C/C(=O)c2cc(Br)ccc2O)cc1OCOC with its measured Interaction with the Free Radical DPPH (%).
[reply] 6.0%

[ask] Annotate the molecule O=C(/C=C/c1ccc(O)c(O)c1)c1cc(Br)ccc1O [Compound 4b, 5′-bromo-2′,3,4-trihydroxy-chalcone] with its measured Interaction with the Free Radical DPPH (%).
[reply] 82.0%

[ask] Annotate the molecule COc1cc(OC)c(OC)cc1/C=C1\Oc2ccccc2C1=O with its measured Interaction with the Free Radical DPPH (%).
[reply] no

[ask] Annotate the molecule COCOc1ccc2c(c1)O/C(=C\c1ccc(OCOC)c(OCOC)c1)C2=O with its measured Interaction with the Free Radical DPPH (%).
[reply] no

[ask] Annotate the molecule COc1ccc(/C=C/C(=O)c2cc(Br)cc(Br)c2O)cc1OC with its measured Interaction with the Free Radical DPPH (%).
[reply] no

[ask] Annotate the molecule COC(=O)c1ccc(/C=C/C(=O)c2ccccc2O)cc1 [Compound 5, 4-Methoxycarbonyl-2′-Hydroxy-Chalcone] with its measured Interaction with the Free Radical DPPH (%).
[reply] no

Now examine the next entry.
[ask] Annotate the molecule COc1ccc(/C=C/C(=O)c2cc(Br)ccc2O)cc1OC with its measured Interaction with the Free Radical DPPH (%).
[reply] no
